Listing of pIC50 toward Oxysterols receptor LXR-alpha (Homo sapiens), each taken from a published source.
Notebook: values listed as pIC50 are -log10 of the concentration (mol/L).

Query the reported pIC50 for Oxysterols receptor LXR-alpha (Homo sapiens); item: `O=C(O)Cc1cccc2ccc(OCc3cccc(-c4c(Cc5ccccc5)cnc5c(C(F)(F)F)cccc45)c3)cc12`
6.00

Query the reported pIC50 for Oxysterols receptor LXR-alpha (Homo sapiens); item: CS(=O)(=O)c1cccc(-c2cccc([C@@H]3CN(S(=O)(=O)c4ccccc4)CC[C@@H]3c3ccccc3)c2)c1 (relative stereo)
5.52

Query the reported pIC50 for Oxysterols receptor LXR-alpha (Homo sapiens); item: `O=C(O)c1ccc2ccccc2c1OCc1cccc(-c2c(Cc3ccccc3)cnc3c(C(F)(F)F)cccc23)c1`
5.65

Query the reported pIC50 for Oxysterols receptor LXR-alpha (Homo sapiens); item: `O=C(O)c1ccc(OCc2cccc(-c3c(Cc4ccccc4)cnc4c(C(F)(F)F)cccc34)c2)c(F)c1`
6.06

Query the reported pIC50 for Oxysterols receptor LXR-alpha (Homo sapiens); item: `CC(C)N(Cc1ccc(-c2cccc(S(C)(=O)=O)c2)s1)S(=O)(=O)c1ccccc1C(F)(F)F`
5.10

Query the reported pIC50 for Oxysterols receptor LXR-alpha (Homo sapiens); item: `Cc1ccc(F)cc1S(=O)(=O)N(Cc1ccc(-c2cccc(S(C)(=O)=O)c2)s1)CC(C)C`
6.78

Query the reported pIC50 for Oxysterols receptor LXR-alpha (Homo sapiens); item: `Cc1nc(-c2cccc(Oc3cccc(S(C)(=O)=O)c3)c2)c2cccc(C(F)(F)F)c2n1`
4.86

Query the reported pIC50 for Oxysterols receptor LXR-alpha (Homo sapiens); item: `CCc1nc2c(C(F)(F)F)cccn2c1-c1cccc(Oc2cccc(S(=O)(=O)CCCO)c2)c1`
6.28

Query the reported pIC50 for Oxysterols receptor LXR-alpha (Homo sapiens); item: `CCS(=O)(=O)c1cccc(Oc2ccc(F)c(-c3ncnc4c(Cl)cccc34)c2)c1`
6.15

Query the reported pIC50 for Oxysterols receptor LXR-alpha (Homo sapiens); item: `CC(C)CN(Cc1cccc(-c2cccc(S(C)(=O)=O)c2)n1)S(=O)(=O)c1ccccc1Cl`
5.83

---
Query the reported pIC50 for Oxysterols receptor LXR-alpha (Homo sapiens); item: `Cc1cc(NCc2cscc2-c2c(Cc3ccccc3)cnc3c(C(F)(F)F)cccc23)c(C)cc1CC(=O)O`
5.45

Query the reported pIC50 for Oxysterols receptor LXR-alpha (Homo sapiens); item: `Cc1nc2c(C(F)(F)F)cccc2nc1-c1ccc(-c2cccc(S(C)(=O)=O)c2)cc1`
6.12

Query the reported pIC50 for Oxysterols receptor LXR-alpha (Homo sapiens); item: `CCc1nc2c(C#N)cccn2c1-c1cccc(OCc2cccc(S(C)(=O)=O)c2)c1`
4.39

----------
Listing of pIC50 toward UniProt Q13133, each taken from a published source.
Notebook: values listed as pIC50 are -log10 of the concentration (mol/L).

Solved entries (count: 5):
Query the reported pIC50 for UniProt Q13133; item: `Cc1nc2c(C(F)(F)F)cccc2n1-c1ccc(Oc2cccc(S(C)(=O)=O)c2)cc1`
8.08

Query the reported pIC50 for UniProt Q13133; item: `CS(=O)(=O)c1cc(Oc2ccc(F)c(-c3ncnc4c(C(F)(F)F)cccc34)c2)ccc1C#N`
5.39

Query the reported pIC50 for UniProt Q13133; item: `Cc1nc2c(Cl)cccc2n1-c1cccc(Oc2ccccc2S(C)(=O)=O)c1`
6.13

Query the reported pIC50 for UniProt Q13133; item: `Cc1cc(NCc2cccc(-c3c(Cc4ccccc4)cnc4c(C(F)(F)F)cccc34)c2)ccc1C(=O)O`
7.10

Query the reported pIC50 for UniProt Q13133; item: `CS(=O)(=O)c1cccc(Oc2ccc(F)c(-c3ncnc4c(Cl)cccc34)c2)c1`
6.14

---
Query the reported pIC50 for UniProt Q13133; item: `COC(=O)c1ccccc1S(=O)(=O)N(Cc1ccc(-c2cccc(S(C)(=O)=O)c2)s1)CC(C)C`
5.58

Query the reported pIC50 for UniProt Q13133; item: CC(C)(C)OC(=O)N1CC[C@H](c2ccccc2)[C@H](c2cccc(-c3cccc(S(C)(=O)=O)c3)c2)C1 (relative stereo)
5.55
